# System: GAL4 DBD (1-147)-CfEcR(DEF)/VP16AD-βRXREF-LmUSPEF (Choristoneura fumiferana)
# Assay method text: cell-based
# Experimental conditions: maximum fold induction at any concentration relative to that of GS-E ligand; CHO 27-63 cells
Provide the reported 27-63 assay Rel Max FI of each item.
Give bare numbers.

INSERT INTO measurements (molecule, readout_number) VALUES
  ('CCC(N(NC(=O)c1cccc(C)c1C)C(=O)c1cc(C)cc(C)c1)C(C)(C)C (stereo not shown)', 0.975),
  ('CCc1c(OC)cccc1C(=O)NN(C(=O)c1cc(OC)cc(OC)c1)C(C)(C)C', 1.342),
  ('COc1cccc(C(=O)NN(C(=O)c2cc(C)cc(C)c2)C(C)(C)C)c1[N+](=O)[O-]', 1.197);

Give me 27-63 assay Rel Max FI for each of these molecules, listed below.
1. CCc1c(OC)cccc1C(=O)NN(C(=O)c1cc(C)cc(C)c1)C(C)(C)C=NCCO
2. CCCCC(N(NC(=O)c1cccc(OC)c1C)C(=O)c1cc(OC)c(C)c(OC)c1)C(C)(C)C (stereo not shown)
3. CCc1c(C(=O)NN(C(=O)c2cc(C)cc(Cl)c2)C(C)(C)C)ccc2c1OCCO2

Output line:
1: 0.74; 2: 1; 3: 0.916

Give me 27-63 assay Rel Max FI for each of these molecules, listed below.
1. CCCC(N(NC(=O)c1cccc(OC)c1CC)C(=O)c1cc(C)cc(C)c1)C(C)(C)C (stereo not shown)
2. CCOC(=O)C(C)(C)N(NC(=O)c1cccc(OC)c1CC)C(=O)c1cc(C)cc(C)c1
3. CCC(N(NC(=O)c1cccc(OC)c1C)C(=O)c1cc(OC)c(C)c(OC)c1)C(C)(C)C (stereo not shown)
4. Cc1cc(C)cc(C(=O)N(NC(=O)c2ccc3c(c2Br)OCCO3)C(C)(C)C)c1

Output line:
1.049
1.523
1.270
0.964
